Where do the numbers come from? From PubChem BioAssay (NCATS).

System: KB-3-1
method-notes: Cytotoxic Profiling of Annotated Libraries Using Quantitative High-Throughput Screening (AID 1296008); further: nearly all actives have a fitted effect of over 60% in size
condition-parameters: Five cell lines viability, CellTiter-Glo ATP luminescence, 48-72 h
Records with an inconclusive call do not appear. The source made the active and inactive calls. The call rests on the fitted dose curve; in most records, active means well fitted inhibition curve with a large enough effect; inconclusive means small, poorly fitted or top-dose-only effect; inactive means flat fitted curve, though single readings scatter.
Outcomes: class 1 (active), class 0 (inactive)

>  <compound>
C/C=C(\C)[C@@H]1C(C)=C[C@@H]2[C@H]([C@@H]1/C=C/C=C/C(=O)O)[C@@H](C)CC[C@@H]2O

>  <test-system>
KB-3-1

>  <label-class>
class 1

$$$$
>  <compound>
CC(=O)O[C@@]12CO[C@@H]1C[C@H](O)[C@@]1(C)C(=O)[C@H](O)C3=C(C)[C@@H](OC(=O)[C@H](O)[C@@H](NC(=O)OC(C)(C)C)c4ccccc4)C[C@@](O)([C@@H](OC(=O)c4ccccc4)C12)C3(C)C (stereo partly drawn)

>  <test-system>
KB-3-1

>  <label-class>
class 1

$$$$
>  <compound>
COC(=O)C[C@](O)(CCCC(C)(C)O)C(=O)O[C@@H]1C(OC)=CC23CCCN2CCc2cc4c(cc2[C@H]13)OCO4 (stereo partly drawn)

>  <test-system>
KB-3-1

>  <label-class>
class 1

$$$$
>  <compound>
Cn1cc(-c2ccc(S(=O)(=O)n3ccc(/C=C/C(=O)Nc4ccccc4N)c3)cc2)cn1

>  <test-system>
KB-3-1

>  <label-class>
class 1

$$$$
>  <compound>
CCC(C)/C=C(C)/C=C/C1=CC2=C(Cl)C(=O)C(C)(OC(C)=O)C(=O)C2(O)C(OC)O1 (stereo not drawn)

>  <test-system>
KB-3-1

>  <label-class>
class 0

$$$$
>  <compound>
COCCCNC(=O)c1ccc(Cn2c(=O)c3ccccc3n(Cc3ccc(C(C)C)cc3)c2=O)cc1

>  <test-system>
KB-3-1

>  <label-class>
class 0

$$$$
>  <compound>
CC(C)C[C@@H](N)C(=O)N[C@H]1C(=O)N[C@@H](CC(N)=O)C(=O)N[C@H]2C(=O)N[C@H]3C(=O)N[C@H](C(=O)N[C@H](C(=O)O)c4cc(O)cc(O)c4-c4cc3ccc4O)[C@H](O)c3ccc(c(Cl)c3)Oc3cc2cc(c3O[C@@H]2O[C@H](CO)[C@@H](O)[C@H](O)[C@H]2O[C@H]2C[C@](C)(N)[C@H](O)[C@H](C)O2)Oc2ccc(cc2Cl)[C@H]1O

>  <test-system>
KB-3-1

>  <label-class>
class 0

$$$$
>  <compound>
CCN(CC)c1ccc(C(=C2C=CC(=[N+](CC)CC)C=C2)c2ccccc2)cc1

>  <test-system>
KB-3-1

>  <label-class>
class 1

$$$$
>  <compound>
O=c1cc(N2CCN(c3cccc(C(F)(F)F)c3)CC2)[nH]c(=O)n1C1CCCCC1

>  <test-system>
KB-3-1

>  <label-class>
class 0

$$$$
>  <compound>
COc1ccc([C@H]2OC[C@H]3O[C@@H](O[C@H]4[C@@H]2NC[C@@H]4O)[C@H](O)[C@H]3O)cc1

>  <test-system>
KB-3-1

>  <label-class>
class 1

$$$$
>  <compound>
COc1cc2nc(N3CCN(C(=O)c4ccco4)C4CCCCC43)nc(N)c2cc1OC (stereo not drawn)

>  <test-system>
KB-3-1

>  <label-class>
class 1

$$$$
>  <compound>
O=C(/C=C/c1ccccc1O)O[C@@H]1O[C@H](CO)[C@@H](O)[C@H](O)[C@H]1O

>  <test-system>
KB-3-1

>  <label-class>
class 0

$$$$
>  <compound>
CC1(C)CC[C@]2(C(=O)O)[C@H](O)C[C@]3(C)C(=CCC4[C@@]5(C)CC[C@H](O[C@@H]6O[C@H](CO[C@@H]7OC[C@H](O)[C@H](O)[C@H]7O[C@@H]7OC[C@H](O)[C@H](O)[C@H]7O)[C@@H](O)[C@H](O)[C@H]6O)C(C)(C)C5CC[C@]43C)[C@@H]2C1 (stereo partly drawn)

>  <test-system>
KB-3-1

>  <label-class>
class 0

$$$$
